Endpoint: IC50. System: human Factor XIa (Homo sapiens). Items follow.
Sequence (P03951 388-625 limits assumed): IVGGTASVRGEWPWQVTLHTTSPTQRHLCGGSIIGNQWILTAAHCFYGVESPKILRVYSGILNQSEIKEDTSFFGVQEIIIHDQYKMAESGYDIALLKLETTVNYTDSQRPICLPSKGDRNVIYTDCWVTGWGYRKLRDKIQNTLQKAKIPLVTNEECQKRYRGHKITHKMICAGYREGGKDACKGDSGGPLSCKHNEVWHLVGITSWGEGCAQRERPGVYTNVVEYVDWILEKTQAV
Sequence (P03951 19-387 partner limits assumed): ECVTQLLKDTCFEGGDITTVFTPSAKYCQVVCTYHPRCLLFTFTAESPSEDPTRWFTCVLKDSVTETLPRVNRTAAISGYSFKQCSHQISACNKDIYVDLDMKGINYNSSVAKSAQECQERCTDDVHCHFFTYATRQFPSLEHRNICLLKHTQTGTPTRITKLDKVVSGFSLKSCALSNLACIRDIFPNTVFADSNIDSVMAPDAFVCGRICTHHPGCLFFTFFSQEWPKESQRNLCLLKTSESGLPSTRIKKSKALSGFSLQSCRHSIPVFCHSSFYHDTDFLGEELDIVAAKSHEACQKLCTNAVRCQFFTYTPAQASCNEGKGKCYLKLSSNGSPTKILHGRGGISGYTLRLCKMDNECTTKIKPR

Would you kindly share the measured IC50 for Nc1cc(C[C@H]2C(=O)N(C(=O)N[C@@H](C3CCCCC3)C(F)(F)F)[C@@H]2C(=O)NC2CC2)ccn1 ? 10 to 100 nM

Would you kindly share the measured IC50 for CC[C@@H](NC(=O)N1C(=O)[C@H](Cc2ccnc(N)c2)[C@H]1C(=O)N(C)c1ncccn1)c1ccccc1 ? < 10 nM

Would you kindly share the measured IC50 for CN(C(=O)[C@@H]1[C@@H](Cc2ccnc(N)c2)C(=O)N1C(=O)NC1CCCc2ccccc21)c1ccccc1 (stereo partly shown) ? 100 to 1000 nM

Would you kindly share the measured IC50 for Cc1ccccc1N(C)C(=O)[C@@H]1[C@@H](Cc2ccnc(N)c2)C(=O)N1C(=O)N[C@@H](C1CCCCC1)C(F)(F)F ? 10 to 100 nM
